assay: viability loss with induced miR-34 in A549 – imaging, A549 dox-inducible miR-34, nuclei and caspase counts, primary screen (AID 1347080); conditions: A549 miR-34 inducible, Hoechst nuclei count, 48 h; measured here: relative caspase fold change +Dox/-Dox
Class 1: fold change at least 1. Class -1: fold change below 1.

Prompt: Answer whether fold change of CC/C=C\C/C=C\C/C=C\C/C=C\CCCCCCC(=O)OCC is greater than or equal to 1.
Completion: 1

====

test: viability loss with induced miR-34 in A549 – imaging, A549 dox-inducible miR-34, nuclei and caspase counts, primary screen (AID 1347080); conditions: A549 miR-34 inducible, Hoechst nuclei count, 48 h; measured here: relative caspase fold change +Dox/-Dox
Classes are defined on fold change with ranges L (below 0.8), M (0.8 to below 1), H (1 or more)

Example entries and their recorded answers appear below.
[[record]]
molecule = "CCc1cc2c(c(CC)n1)CCC(=O)N2Cc1ccc(-c2ccccc2-c2nn[nH]n2)cc1"
assigned_category = "M"

[[record]]
molecule = "CCCCc1ccc(N=CNO)c(C)c1"
assigned_category = "L"

[[record]]
molecule = "C=CCn1c(=O)c2cnc(Nc3ccc(N4CCN(C)CC4)cc3)nc2n1-c1cccc(C(C)(C)O)n1"
assigned_category = "L"

[[record]]
molecule = "CC(CN1CCC(n2c(=O)[nH]c3cc(Cl)ccc32)CC1)NC(=O)c1ccc2ccccc2c1 (centres undefined)"
assigned_category = "H"

[[record]]
molecule = "O=C1NC(=O)c2cc(Nc3ccc(F)cc3)c(Nc3ccc(F)cc3)cc21"
assigned_category = "M"


Prompt: Which band does CCCCC[C@H](O)/C=C/[C@H]1CC[C@@H](O)[C@@H]1CCCCCCC(=O)O fall in?
Completion: H

Prompt: Which band does CC(C)N1Cc2cc(S(C)(=O)=O)ccc2N(CCN2CC=C(c3c[nH]c4cc(F)ccc34)CC2)S1(=O)=O fall in?
Completion: H

Prompt: Which band does CC(C)OC(=O)CCC/C=C\C[C@H]1C(=O)C[C@@H](O)[C@@H]1/C=C/[C@@H](O)COc1cccc(C(F)(F)F)c1 fall in?
Completion: H

Prompt: Which band does N[C@H](C(=O)O)c1ccc(C(=O)O)c(C(=O)O)c1 fall in?
Completion: L

====

assay: growth inhibition of DIPG cells – cell-based, MIPE4.0 library, CellTiter-Glo luminescence, qHTS (AID 1347066); conditions: SU-DIPG-VI viability, CellTiter-Glo ATP luminescence;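 also: cells exposed to compound for 48 hours before readout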
Results filed as inconclusive are left out. Active and inactive are the calls of the source. No cut-off is given here; in the data, nearly all actives have AC50 up to about 30 µM.
Select the correct class. Options are active, inactive and nothing else.

Example entries and their recorded answers appear below.
[[record]]
molecule = "Cc1noc(-c2ccc(CSCCC(=O)O)cc2)c1NC(=O)OC(C)c1ccccc1Cl (stereo not given)"
assigned_category = "inactive"

[[record]]
molecule = "CCOc1cc2ncc(C#N)c(Nc3ccc(OCc4ccccn4)c(Cl)c3)c2cc1NC(=O)/C=C/CN(C)C"
assigned_category = "inactive"

[[record]]
molecule = "N#Cc1c(NC(=O)c2cccc3ccccc23)sc2c1CCCC2"
assigned_category = "inactive"

[[record]]
molecule = "C/C=C1\\C2C=C(C)CC1(N)c1ccc(=O)[nH]c1C2 (stereo not given)"
assigned_category = "inactive"


As a next step, examine the molecule that follows.
Prompt: Per the assay record, what outcome was assigned to CC[C@@H]1C(=O)N(C)c2cnc(Nc3ccc(C(=O)NC4CCC(N5CCN(CC6CC6)CC5)CC4)cc3OC)nc2N1C(C)C (stereo not given in full) ?
Completion: active

====

assay: viability loss in pontine glioma line – cell-based, JHH-DIPG-1, MIPE4.0, CellTiter-Glo, qHTS, dose response (AID 1347062); details: JHH-DIPG-1 viability, CellTiter-Glo ATP luminescence;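 as to AC50: cells exposed to compound for two days before readout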
Records with an inconclusive call do not appear. The source made the active and inactive calls. The limit is not given here; nearly all actives have AC50 up to about 27 µM.
assay.readout: AC50

Example compounds with recorded AC50:
[[record]]
compound = "CC1(C)Cc2c(sc(NC(=S)NC(=O)c3ccccc3)c2C(=O)O)CO1"
recorded_value = "inactive"

[[record]]
compound = "COc1cc(CCc2cc(NC(=O)c3ccc(N4C[C@@H](C)N[C@@H](C)C4)cc3)n[nH]2)cc(OC)c1"
recorded_value = "18.7 µM (active)"

[[record]]
compound = "Cc1cnc(-c2cnc(NCCNc3ccc(C#N)cn3)nc2-c2ccc(Cl)cc2Cl)[nH]1"
recorded_value = "inactive"

[[record]]
compound = "CCCNS(=O)(=O)Nc1ncnc(OCCOc2ncc(Br)cn2)c1-c1ccc(Br)cc1"
recorded_value = "inactive"

[[record]]
compound = "C[C@@]12O[C@@H](C[C@]1(O)CO)n1c3ccccc3c3c4c(c5c6ccccc6n2c5c31)CNC4=O"
recorded_value = "2.96 µM (active)"


Sample Cc1ccc(CN2CCNCC2)cc1NC(=O)CNc1ccc(F)c(F)c1 ; AC50 observed: inactive

Sample Cc1cc(C(C)Nc2ccccc2)c2nc(N3CCOCC3)cc(=O)n2c1 (centres undefined) ; AC50 observed: inactive

Sample NC(=O)c1noc([C@H](CCCC2CCCCC2)CC(=O)NO)n1 ; AC50 observed: 23.5 µM (active)

Sample CC(C)c1ccccc1Cc1cc(C(=O)Nc2ccc(S(=O)(=O)c3ccccc3C(C)(C)C)cc2)c(O)c(O)c1O ; AC50 observed: 23.5 µM (active)

====

test: growth inhibition, MDA-MB-436, cell-based, BGB or cisplatin combos, synergistic combos for chromothripsis tumors (AID 1671458); details: MDA-MB-436 breast carcinoma growth inhibition, drug combinations; measured here: cisplatin combination; at 5 µM; stronger effect = higher value;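 also: cells exposed for 96 hours; 0% = vehicle DMSO and 100% = killing by high DMSO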
As shown below, each of these compounds has a reported inhibition value.
Express the reported value numerically, then name its unit.

Example compounds with recorded inhibition:
[[record]]
compound = "Nc1ccc(-c2ccc3ncc4ccc(=O)n(-c5cccc(C(F)(F)F)c5)c4c3c2)cn1"
assay_readout = "inhibition"
recorded_value = "57.7%"

[[record]]
compound = "O=c1cc(N2CCOCC2)oc2c(-c3cccc4c3sc3ccccc34)cccc12"
assay_readout = "inhibition"
recorded_value = "5.38%"

[[record]]
compound = "CS(=O)(=O)c1ccc(-c2nnc(/C=C/c3nnc(-c4ccc(C#N)cc4)o3)n2-c2ccccc2Cl)nc1"
assay_readout = "inhibition"
recorded_value = "11.5%"

[[record]]
compound = "O=C(O)CO.[NH2-].[NH2-].[Pt+2]"
assay_readout = "inhibition"
recorded_value = "-23.8%"

[[record]]
compound = "CC(C)OC(=O)[C@H](C)N[P@](=O)(OC[C@H]1O[C@@H](n2ccc(=O)[nH]c2=O)[C@](C)(F)[C@@H]1O)Oc1ccccc1"
assay_readout = "inhibition"
recorded_value = "-27.6%"


Sample Nc1ccccc1NC(=O)c1ccc(CNc2nccc(-c3cccnc3)n2)cc1 ; inhibition observed: 64%

Sample O=c1[nH]c([C@@H]2CCCN2)nc2c1oc1ccc(Cl)cc12 ; inhibition observed: -71.9%

Sample C=C1[C@H](CO)[C@@H](O)C[C@@H]1n1cnc2c(=O)[nH]c(N)nc21 ; inhibition observed: -10.2%

Sample Cc1ccc2nc(NCCN)c3ncc(C)n3c2c1 ; inhibition observed: 80.2%

Sample COc1ccc(C(=O)CC2(O)C(=O)Nc3c(Cl)ccc(Cl)c32)cc1 (configuration not stated) ; inhibition observed: 64.3%

Sample CN(C)Cc1c(C(=O)NCCOc2ccc(C(=O)NO)cc2)oc2ccccc12 ; inhibition observed: 69.4%

Sample COc1ccc(C(=O)C2CCN(CC(=O)N(Cc3nc4c(c(=O)[nH]3)COCC4)CC3CC3)CC2)cc1 ; inhibition observed: -17.8%

Sample Cc1cn([C@@H]2O[C@H](CO)[C@@H](O)[C@@H]2F)c(=O)[nH]c1=O ; inhibition observed: -37%

====

As shown below, each of these compounds has a reported viability value.
experiment: drug combination growth inhibition, ovarian cancer – cell-based, oncology-focused library, rucaparib conditional, profiling panel (AID 1508598); settings: patient-derived ovarian cancer cells, CellTiter-Glo viability, 144 h; at 0.00488 µM; OCI-C5x cells; with rucaparib 10 µM; stronger effect = lower value; 100% = cells with rucaparib alone
Answer format: numeric, % implied, no suffix.

Example compounds with recorded viability:
[[record]]
compound = "Cn1cnc(=N)c2[nH]cnc21"
recorded_value = 107

[[record]]
compound = "Cn1cc(-c2ccc3nnc(C(F)(F)c4ccc5ncccc5c4)n3n2)cn1"
recorded_value = 118

[[record]]
compound = "O=C(Nc1ccccc1-c1cn2c(CN3CCNCC3)csc2n1)c1cnc2ccccc2n1"
recorded_value = 106

[[record]]
compound = "Cc1cc(CS(=O)(=O)c2ccccc2)cc(OCc2ccc(CN3CCC[C@@H]3CO)cc2)c1"
recorded_value = 111

[[record]]
compound = "CC1(COc2ccc3c(c2)ncn3-c2ccc3cccc(N4CCC(N)CC4)c3n2)COC1"
recorded_value = 111


Sample O=C(Nc1cccnc1)N1CCC(Cc2cccc(Oc3ccc(C(F)(F)F)cn3)c2)CC1 ; viability observed: 128

Sample CN(C)Cc1ccc(-c2nc3cccc4c3n2CCNC4=O)cc1 ; viability observed: 109
